src = the domain aggregation screens of Martell et al. (2025)

Test: soluble fraction after stress (log2 fold change); higher = more stays soluble; pooled small domains, quantitative proteomics;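 further: 20 min heating vs room temperature control held 20 min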
Conditions: stress: 75 degC
Could you please report measured soluble fraction (log2) for the items listed next?
Numbers only.

HMDDFGERLRKLRVAQDLTQQQLGEKLGVVPSTIGKYEKVKDSYPSIEVLIKLSDFFSVSTDYLLKG -2.19
HMPVLDETVPAALDGERIDRVVALLADVSRNRAGIAIAAGSVRLDGAVVTQRSRKVRADEELVVDGLER 0.107
HMASISDRIRLLRAESHMTQEEFGRIFGISKPTVSFYEHGKSVPNDQIKTAIARYFGVSVDYLLGVTD -2.14
HMWSAREQVVNSLREAILTSELKAGERLVLSDLSARLGVSVTPIREALQSLEREGLVQLMPHQEAVVV 0.18

I have 5 sequences here; please give me soluble fraction (log2) for each one.
1. HMNADKEALIAAAYRNSLIENFGTENVERYEERFNKWADKHDRQGMPMYPTIEKWMNEDNIA
2. HMQLDLNENEKIIFEILQNNKTMQLSNLKTQTELSNKGWDKAIKSLTKQGLAKVSKIDNELIVEFL
3. HMNYKNAIGQVGSVYVPIPPNREGLGQIEVKVQSRVSTVRAVSDHSERLENRVAVRVIELVDDRTLLVEKL
4. HMKSGLLNLSTRKQEKIKQALLSEFSNVSLLEAKVANIVTLAEISRGSFYTYFEDIYDAYQWLASI
5. HMSQRINLNSASIEDMQSLDISNEKIDSIIDYRNRYGNIHNIYELLKIPGITIGDIHSIRNAVTVEIPH

[0.0631, -0.466, -1.15, -0.513, -0.104]

I have 8 sequences here; please give me soluble fraction (log2) for each one.
1. HMSGAQIQQLLESRAPQPGMNPDMIVRRKTYMNNVFNALKGALLRVANGSSPEEVKTEVDAAIQVDPDKL
2. HMLAYQRTYEKILEDLRNDVYPVNSLLPPEPKLEEIYHVSRTTVRRAIAQLADEGYVKVKQGYGTVVLKN
3. HMPLEKGVVILDVTPSSAKVAVDGTSVETTYPLRLSAGLHQLSAEADGYDSITEYFKVETEKTTVTLDLSK
4. HMLPRNKRIEIALTYIYGLGRHAATVVLKHANISPDKRTDDLDENDVRKLRDAIDANFRVEGDLRR
5. HMDELIKQVANYIINNRATINETAGAFGKSVSSIKKYINDADKLQRIDFELYQKVKEVQKIVELNGQI
6. HMSAVVAPLPGLIQNILVKVGDTVHAGQHVLTMEAMKMENEIQTNRDGIIKDIKVRIGDSVNEGDTLIIL
7. HMKQDFVYNGFVEAKGDDLMVQINYKGETYYVTEGESFGGFTVKSANKDKVVLSGQGGAETVLEFR
8. HMVPLTPGELVGTEVRVLWWKEGRGEVIASSRGHQLTLEAHSEDPLRAGSTAVVLEAADDVLVVTS

[0.353, -2.02, 0.236, -1.55, -0.396, 0.0725, -0.186, -0.734]

====

Experiment: soluble fraction after stress (log2 fold change); higher = more stays soluble; pooled small domains, quantitative proteomics
Conditions: stress: 75 degC
Could you please report measured soluble fraction (log2) for the items listed next?
One number for each entry.

# count of solved cases: 5
HMSFDENEALRKALDVFWEKGYDGTSLSDLTEAMGINKPSLYATFGNKDQLFLKAIEMYENR -1.4
HMFDDEELDTFAGRQSDSYDQQEVEQFSDVLHTMRQDEVQAWWRSLTLRGISLPDELKDEVIML -0.481
HMVSVEELLSSLDPNEATVLKLLAERSSGVDELMERSGLDFSALSEAITNLELFGYIAREMDGVYSFS -1.05
HMTEKMILKWKEALERMNDDFTTKDWLNVVIHEMGKSERTAYGWLSDMKRSGIIKDLGYGSWLKVLE -1.37
HMIVAHEINRHLGESDQPVEIPDNRREGAVAELLKTFNNDDAFREMDDGKYEVALDGEKVREAARSLLA 0.0479

I have 5 sequences here; please give me soluble fraction (log2) for each one.
1. HMGADSFTGYTPIHKIDNPSDGINDGASYVVYFQKDGTDPTEFYKAVNANASTLAQLTSGTEYDLASSKKL
2. HMKQLIGYSVIDIKMGKLGEISFVNSKTAQALIHVSKDGKGFYFPWHKQFVKNIDAEKGIMEVEIPKEFLD
3. HMKKKSYIVSFATDEDAQRFAREGFEVISLSGRQITVSLKGEMMPLVKALGSYQVVGLETVA
4. HMTLREQISALIKQGKLTQAKLARETGVNGGALSAWINGKYTGNVETVEEPIKHWMALNERK
5. HMKVSNWYFNGAPSATTPPTSQWTTEKDKKAHIGDTFTSLDKSPSPNAGKSWRYTPSYTWEEIV

[0.56, -0.974, -1.77, -0.342, 0.655]

I have 5 sequences here; please give me soluble fraction (log2) for each one.
1. HMSNPPIRIGKKALHELLTTWLSLLSRDGVAYLVVQKNLGADSLTAWLRDQGFPSEKIASKKGFRIIEVH
2. HMLLTHEEQIVKRGWQAPVGPFAILDSRAEAMHGDLEMLRGDREAAEQHFRRAWQIIGPIVEQ
3. HMLFKGDTREENVILEFLSKNGTTSSDAIIKQTGLSASEFNQAITMLELKGLALNNGGEKWSL
4. HMHVSIAENIRRIRTQHDMTQEEFGKVAAVSAMAVSQWENGRAVPRMGAVQRIADYFNISKGEVID
5. HMPGRPSRISDAVKDQIDHDLRKNPRDLGYSQNLWDGKLLSHHLKERYQITLGIRQAQRLFHQLGFRQR

-0.315
-0.0144
0.304
-0.699
-0.846

I have 4 sequences here; please give me soluble fraction (log2) for each one.
1. HMSLREKNKARTRTAILNAARDLAKQGQWDAITTRQIADAAGVSYQTLYNYYPSKASILVEMLL
2. HMPQISQDDLMEAGLIVGKEAKQRRIKLGEILGIGYVNAKQLPKRLQLFQVAKSDFEQAVQQIDG
3. HMSSEASALRGWLQTSQYQGSVTLFANALNVPLKTVEDWVYGRSKPSLQHWSQLYEATGLPEYQQ
4. HMVPHTTSMVAEVQERLFNLNYDPGPINGRMDQATITAITRFQRNFSLPQTGQIDEGFLNTLRDARL

[-2.03, -0.218, -0.387, -0.73]

I have 5 sequences here; please give me soluble fraction (log2) for each one.
1. HMGKMTSTLGVHIAAYRKEHGETVAQFASRSGVSVSSIRRIESGISDPSADLVWKISRHMGMTMDDLFKKM
2. HMAISEEEATNLALERVPGASAQDLRIQLEFDDGVQKYEGDIIYDGKEYDFEIDANTGTFLEWSE
3. HMAGTRVWSENGQLYVTAAVSGRANVYNVLGKLNRSLTFSAGETKSVSVPAGIYVVSLNNGKAYKVAV
4. HMVSVPDIGEKLPDFTGTPKRLLTPLLNKNDVNIIIKGDGWVVSQKPPAGTPVTKGMTIEFTL
5. HMSLSIKINHESVGLRLDQFLQEHYYKQQSRSYVQHAIKEGYILVNGQSVKNGYMLKLDDLIELEAI

1: -3.74; 2: -0.0521; 3: -3.28; 4: -0.525; 5: -4.5

I have 3 sequences here; please give me soluble fraction (log2) for each one.
1. HMPPENVSVRREQIAEDKKTVYNVWVTKGNKTVLYSKVVYAWGGVYFFRDLNTSISENMYKQADAGLVN
2. HMAIDINKIYSEIKKKIPNQDNHIKEILSIIWRDFNNYQNIKSRSILINGEKSSPKKEIFNIIEDNINIPV
3. HMDYGSISFINWSIEVLSVIKTRLDRGDKIIDEVSGEKYTASSFEKFVRKNFSSYIFSQVYAEDHKK

1: 0.00373; 2: 0.0633; 3: -2.73

I have 5 sequences here; please give me soluble fraction (log2) for each one.
1. HMEENIKKDIEVPNIEGLTIDEAKKRLKEVNLNISIEDMEEKEGTEIITQQLPKAGIKVKEGVAIIAY
2. HMATKVSSGATVRDVADLLGLSSAELIKKLMMMGEMATLTQTLTDESIKSIADEYDRKIEIVSAAE
3. HMGNKKLVLKLSKKLIKIPSFLNIYSVKLTKNGRELEINLDKSQNEAIDIINLIKKNNISFLEFDIKKR
4. HMLDYITLSPQELGKLLSAGNGDAAMVYLYMKATGDVTLKQAETQLGMTNQNLAWAESLLKRLGLMD
5. HMEYDYKVIDFFKDYYSYLNYQEIEPNILDKQLTTLTEEESAKIAGIMKLDYEDFTRGIEIVTGS

0.227
-0.0786
-1.43
-1.9
-0.536

I would be grateful if you could share the reported soluble fraction (log2) for "HMSFNNHYEILQVQPSADREVIEAAAKALLKKHHPDLGGRNTITSHIVQAKKVLTDTSQRADFDARLRERL" .
-0.135
